test system: MS2 coat protein; assay: apparent KD of MS2 coat protein; designed switch direction (-1 OFF switch, 1 ON switch): -1; higher = weaker reporter binding; details: input ligand: FMN 200 uM

>  <macromolecule sequence>
AGAAGUGCCGAGGAUAUCCAGGCAAUCUCGUUCGGAGAAGGCGGCACUUGAGGAUCACCCAAGUGCUCCUAAGA [Islariat] (Eterna round: R97, puzzle: Exclusion 6)

>  <unit label>
µM

>  <apparent KD of MS2 coat protein>
0.0521

$$$$
>  <macromolecule sequence>
GUUAUGUUAGGAUAUGCUUAUGGUGGGUGCUCAGACAUGAUGCAGAAGGGACAUGAGGAUCACCCAUGUACUGU [EX4 #19] (Eterna round: R97, puzzle: Exclusion 4)

>  <unit label>
µM

>  <apparent KD of MS2 coat protein>
0.777

$$$$
>  <macromolecule sequence>
GAAAAUUGGGCAGGAUAUCUAAUGAAAGAAACCGGAGAAGGGCCGGUGGCAAUUGCAGACAUGAGGAUCACCCAUGUAGUUGCA [Eternabot solution 42] (Eterna round: R96, puzzle: Exclusion NG 1)

>  <unit label>
µM

>  <apparent KD of MS2 coat protein>
0.0135

$$$$
>  <macromolecule sequence>
CAUGUCCAACGAGGAUAUGGGAAAGGAAGUGUACCAGAAGGCGUACGGACAUGAGGAUCACCCAUGUCGCGCGGUGCGAUGUGG [MOD2 Nando EXNG 1.1] (Eterna round: R96, puzzle: Exclusion NG 1)

>  <unit label>
µM

>  <apparent KD of MS2 coat protein>
0.112

$$$$
>  <macromolecule sequence>
GCCGAAAGUGUGAGGAUAUACCUAUGGAUACAUAGGUAGAAGGCACAUGAGGAUCACCCAUGUGUCCAAACGGC [Eli bmx4 4.23] (Eterna round: R97, puzzle: Brourd's mod of Exclusion 4)

>  <unit label>
µM

>  <apparent KD of MS2 coat protein>
0.054

$$$$
>  <macromolecule sequence>
CGUGUCUGAUAGGAUAUGACUGUUCAUAGAUGGUUAGAAGGAUCGACAUGAGGAUCACCCAUGUAGGGCUAGCG [Eternabot (L1) Solution 65] (Eterna round: R97, puzzle: Exclusion 6)

>  <unit label>
µM

>  <apparent KD of MS2 coat protein>
0.104

$$$$
>  <macromolecule sequence>
AUUUAGUCAGGAUAUUAGUAGUAAAUGAAUAAAAUUAUUACUGAGAAGGGACAUGAGGAUCACCCAUGUGUCUA [Mat - Exclusion 4 - Eli Mod - D8] (Eterna round: R97, puzzle: Exclusion 4)

>  <unit label>
µM

>  <apparent KD of MS2 coat protein>
0.06

$$$$
